Listed below are compounds with IC50 for Aminopeptidase N (Sus scrofa), each taken from published literature.
result.type: IC50 (µM)

N[C@@H](c1ccccc1)[C@@H](O)C(=O)N[C@@H](CO)C(=O)NO
158
CC(C)C[C@H](NC(=O)[C@@H](O)CN)C(=O)N[C@@H](Cc1ccccc1)C(=O)O
20.9
CC(C)C[C@H](NC(=O)[C@H](Cc1ccccc1)NC(=O)[C@@H](O)CN)C(=O)OCc1ccccc1
32.2

A: NC(CC(=O)O)Cc1ccccc1 (stereo not given)
B: N[C@@H](c1ccccc1)[C@@H](O)C(=O)N[C@@H](Cc1ccc(O)cc1)C(=O)NO
Prompt: Recorded IC50 values differ for A and B ; which one is higher? Label of pick, please.
Completion: A

----------
study.target: Aminopeptidase N (Sus scrofa, UniProt P15145)
Sequence (P15145 whole entry): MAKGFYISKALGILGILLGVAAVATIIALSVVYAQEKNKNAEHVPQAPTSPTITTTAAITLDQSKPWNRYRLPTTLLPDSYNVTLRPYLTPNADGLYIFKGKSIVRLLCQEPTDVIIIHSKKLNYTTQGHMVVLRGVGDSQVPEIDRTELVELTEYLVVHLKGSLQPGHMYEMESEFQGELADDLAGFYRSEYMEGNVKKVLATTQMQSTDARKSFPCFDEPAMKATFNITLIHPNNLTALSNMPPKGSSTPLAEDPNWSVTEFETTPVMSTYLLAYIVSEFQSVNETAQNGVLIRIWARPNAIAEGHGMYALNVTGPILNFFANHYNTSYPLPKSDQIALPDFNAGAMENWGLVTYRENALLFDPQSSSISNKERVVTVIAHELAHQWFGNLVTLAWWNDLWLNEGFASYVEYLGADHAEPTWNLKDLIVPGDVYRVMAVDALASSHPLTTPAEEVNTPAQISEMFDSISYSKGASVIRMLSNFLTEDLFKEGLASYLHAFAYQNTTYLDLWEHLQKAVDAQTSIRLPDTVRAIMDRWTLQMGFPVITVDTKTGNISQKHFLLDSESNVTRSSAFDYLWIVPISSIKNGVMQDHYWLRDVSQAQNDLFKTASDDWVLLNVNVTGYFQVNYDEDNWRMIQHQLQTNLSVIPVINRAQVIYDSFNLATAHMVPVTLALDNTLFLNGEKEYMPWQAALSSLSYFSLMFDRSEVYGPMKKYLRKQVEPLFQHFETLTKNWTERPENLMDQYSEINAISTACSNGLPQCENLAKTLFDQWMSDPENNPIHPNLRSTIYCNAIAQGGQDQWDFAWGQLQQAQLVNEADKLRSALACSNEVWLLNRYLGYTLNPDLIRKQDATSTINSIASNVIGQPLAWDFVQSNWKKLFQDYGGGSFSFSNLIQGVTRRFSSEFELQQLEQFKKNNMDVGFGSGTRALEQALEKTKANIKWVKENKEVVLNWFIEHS
Listed below are molecules with IC50 for Aminopeptidase N (Sus scrofa, UniProt P15145), each taken from published literature.

Some molecules with recorded IC50:
CC1(C)CCC(C)(C)c2cc(NC(=O)c3ccc(C(=O)NO)cc3)ccc21
> 100 µM
NN1Cc2ccccc2CC1=O
> 1000 µM
NC1Cc2ccccc2NC1=O (stereo not given)
> 1000 µM
CC(=O)C1Cc2ccccc2CC1N (stereo not given)
> 1000 µM

Prompt: Notebook: pull reported IC50 for Aminopeptidase N (Sus scrofa, UniProt P15145), entry Cc1cc(C/N=N/c2ccc([N+](=O)[O-])cc2[N+](=O)[O-])c(C)n1-c1ccc(S(N)(=O)=O)cc1
Completion: > 1000 µM
